assay: self-splicing fitness, log relative to wild type (ln ratio); higher = more splicing; Tetrahymena group I intron in knt gene, E. coli kanamycin selection, DiMSum; sequences stand for … in CUCUCU…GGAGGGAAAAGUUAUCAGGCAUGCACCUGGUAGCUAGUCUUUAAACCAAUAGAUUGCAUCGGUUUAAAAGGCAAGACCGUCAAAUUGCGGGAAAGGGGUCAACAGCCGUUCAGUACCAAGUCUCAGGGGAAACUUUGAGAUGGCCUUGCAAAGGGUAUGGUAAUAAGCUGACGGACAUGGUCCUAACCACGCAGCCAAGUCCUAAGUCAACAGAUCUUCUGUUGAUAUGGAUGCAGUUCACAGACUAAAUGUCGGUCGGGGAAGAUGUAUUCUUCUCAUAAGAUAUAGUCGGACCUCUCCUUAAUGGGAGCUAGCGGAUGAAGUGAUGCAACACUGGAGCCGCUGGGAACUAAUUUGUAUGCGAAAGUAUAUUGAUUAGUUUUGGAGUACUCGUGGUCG; conditions: 37 °C;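 note: selection with 25 µg/mL kanamycin versus none on LB agar overnight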
measured-attribute: self-splicing fitness (ln)
Lab note: record the figure alone, no unit after it.

Provide self-splicing fitness (ln) value for the following sequence: ACGGAGCAAUAUUACGCCGA
-1.49

Tell us which self-splicing fitness (ln) value is on record for CACAAGCAAUAUUACGUUGG
-1.76

Give the reported value of self-splicing fitness (ln) for this record: CUAAAGCAAUAUUACGACGG
0.466

Return self-splicing fitness (ln) for the following sequence: GCUUAGCAAUAUUACGGCUG
-2.21

Return self-splicing fitness (ln) for the following sequence: GAUGAGCAAUAUUACGGUAC
-2.2

Quote self-splicing fitness (ln) reported for UGCCAGCAAUAUUACGCGAG please.
-2.92

Let me know recorded self-splicing fitness (ln) for UUUCAGCAAUAUUACGCUAC , thanks.
-2.39

Give me measured self-splicing fitness (ln), please, for this sequence: GGACAGCAAUAUUACGCGGC
-2.76

# return recorded self-splicing fitness (ln) for input AACCAGCAAUAUUACGGGAU
-1.6

Consider the sequence AAUCAGCAAUAUUACGGUGG and give its recorded self-splicing fitness (ln).
-0.718

Return self-splicing fitness (ln) (reported value) for this sequence: UCGUAGCAAUAUUACGCGUU
-2.18

Recall and state the measured self-splicing fitness (ln) for CCUUAGCAAUAUUACGGUGG .
-1.36
